# PROTOCOL DETAILS: Solubility of the Example 1 compound in organic solvents
# Type: physicochemical
# REPORTED CONDITIONS: 25 °C, organic solvent or mixture, thermodynamic from solid; THF, RT
READOUT NAME: solubility at 2 h

- CHEM SMILES: "CC(C)c1nc(-c2cnc(N)c(OC(F)(F)F)c2)cn1C12CC(N3CCOCC3)(C1)C2"
  READOUT NAME: "solubility at 2 h"
  OBSERVED: "> 50 mg/mL"

---

# PROTOCOL DETAILS: Solubility of hydrogen fumarate salt 11 (1000 mg scale-up batch)
# Type: physicochemical
# REPORTED CONDITIONS: organic solvent or mixture; MEK, 50° C.
READOUT NAME: solubility

- CHEM SMILES: "CC(C)c1nc(-c2cnc(N)c(OC(F)(F)F)c2)cn1C12CC(N3CCOCC3)(C1)C2.O=C(O)/C=C/C(=O)O"
  OBSERVED: "10 to 20 mg/mL"

---

# PROTOCOL DETAILS: Solubility of the Example 1 compound in organic solvents
# Format: physicochemical
# REPORTED CONDITIONS: 25 °C, organic solvent or mixture, thermodynamic from solid; Acetone, RT

- CHEM SMILES: "CC(C)c1nc(-c2cnc(N)c(OC(F)(F)F)c2)cn1C12CC(N3CCOCC3)(C1)C2"
  solubility at 2 h: "> 50 mg/mL"

---

# PROTOCOL DETAILS: Solubility of the Example 1 compound in organic solvents
# Type: physicochemical
# REPORTED CONDITIONS: water, 25 °C, thermodynamic from solid; H2O, RT
# Procedure: Solubility of the Example 1 compound in various organic solvents was determined by the following procedure. […] The mixture was stirred at 800 rpm at 25° C. for 2 hr. If the compound was not dissolved completely by this time, the temperature was then raised to 50° C. and stirring at 800 rpm was continued overnight. […] In either case, the resulting material was evaluated by XRPD.
READOUT NAME: solubility at 2 h

- CHEM SMILES: "CC(C)c1nc(-c2cnc(N)c(OC(F)(F)F)c2)cn1C12CC(N3CCOCC3)(C1)C2"
  READOUT NAME: "solubility at 2 h"
  OBSERVED: "< 50 mg/mL"

---

# PROTOCOL DETAILS: Stability (50° C., 40° C./75% RH, light; 1 week)
# Format: physicochemical
# REPORTED CONDITIONS: initial (before storage)
READOUT NAME: initial purity

- CHEM SMILES: "CC(C)c1nc(-c2cnc(N)c(OC(F)(F)F)c2)cn1C12CC(N3CCOCC3)(C1)C2.O=C(O)CCC(=O)O"
  OBSERVED: "99.74%"
- CHEM SMILES: "CC(C)c1nc(-c2cnc(N)c(OC(F)(F)F)c2)cn1C12CC(N3CCOCC3)(C1)C2.O=C(O)/C=C/C(=O)O"
  OBSERVED: "99.85%"
- CHEM SMILES: "CC(C)c1nc(-c2cnc(N)c(OC(F)(F)F)c2)cn1C12CC(N3CCOCC3)(C1)C2"
  OBSERVED: "99.59%"
- CHEM SMILES: "CC(C)c1nc(-c2cnc(N)c(OC(F)(F)F)c2)cn1C12CC(N3CCOCC3)(C1)C2.O=C(O)CC(O)(CC(=O)O)C(=O)O"
  OBSERVED: "99.58%"
- CHEM SMILES: "CC(C)c1nc(-c2cnc(N)c(OC(F)(F)F)c2)cn1C12CC(N3CCOCC3)(C1)C2.O=C(O)/C=C\\C(=O)O"
  OBSERVED: "99.83%"

Where do these numbers come from? They come from patent US20190382396A1.
